Tested System: T1, postfusion RSV F ectodomain (F ΔFP), subtype A (respiratory syncytial virus subtype A, UniProt P03420 26-109; P03420 147-524)
T1 construct: extracellular domain; also called Postfusion subtype A
Protocol Text: BLI, IgG on sensor
Recorded Kd by entry
Please give a number only; it is taken to be in nM.

Before answering, review these 2 worked examples.
# Binder, Kd / nM
measured = [
    ("ADI-15626 (antibody, V domains shown, IgG) VH: EVQLVESGAEVKKPGSSVKVSCKASGGTFSSYEISWVRQAPGQGLEWMGGINPMFGAANYAQKFQDRVTIIADKSTGTVYMELSSLRSEDTALYYCARERYPSTDDYYRSGRYYGEWGQGTTVTVSS VL: ETTLTQSPSTLSASVGDRVTITCRASQSIRSWLAWYQQKPGKAPKLLIYRASTSDSGVPSRFSGSGSGTEFTLTISSLQPDDFAIYYCQQYNSIPVTFGQGTKLEIK", 0.546),
    ("ADI-15005 (antibody, V domains shown, IgG; also called Antibody Number 124) VH: QVQLVESGPALVKPTQTLTLTCSFSGFSLTTRRMCVSWIRQTPGKALEWLARIDWDDDKDYSTSLKTRLTISKDTSKNQVVLTMTNMDPVDTATYYCARTHIYDSSGYYLYYFDYWGQGTLVTVSS VL: DIVLTQSPSSLSASIGDRVTITCRASQTIASYLNWYQQKPGKAPELLIYAATNLQSGVPSRFSGSGSGTDFTLTISSLRPEDFASYYCQQSYSSPWTFGQGTKVDIK", 0.237),
]

Turning now to a further record.
Just so you know, measured Kd for ADI-15645 (antibody, V domains shown, IgG) VH: EVQLLESGGGLVQPGGSLRLSCAASGFTFSSYAMSWVRQIPGKGLEWVSTINISGGSTYYADSVKGRFTISRDNSRDTVFLQMNGLRAEDTALYYCARGYHIDWFDFWGQGTLVTVSS VL: DIVLTQTPSSVSASVGDRVTITCRASQDIGSWLAWYQQKPGKAPQFLIYAASQLQSGVPSRFSGSGSGTDFTLTISSLQPEDFATYYCQQAKSLPRTFGGGTKVDIK came out at 0.367

Values compiled from patent US20220144922A1.
